- Tested on: Plasmodium berghei (Pb-Luc) exoerythrocytic-stage parasites
- applied.conditions: first series of columns; concentration 0.0137174; fraction of control
So basically, if normalized signal at concentration 0.0137174 comes in under 0.9 it's YES, and if it's 0.9 or more it's NO.

Answered examples (2):
>  <molecule>
C[C@H](CO)N1C[C@H](C)[C@H](CN(C)S(=O)(=O)c2ccc(F)cc2)OCCCC[C@H](C)Oc2ccc(N(C)C)cc2C1=O

>  <category.label>
NO

$$$$
>  <molecule>
Cc1noc(C)c1S(=O)(=O)N(C)C[C@H]1OCc2cn(nn2)CCCC(=O)N([C@@H](C)CO)C[C@@H]1C

>  <category.label>
YES

$$$$

Strictly below 0.9 in normalized signal at concentration 0.0137174? `O=C(Nc1ccc2c(c1)[C@@H]1C[C@@H](CC(=O)N3CCc4ccccc4C3)O[C@@H](CO)[C@@H]1O2)c1ccc2c(c1)OCO2`
NO

Strictly below 0.9 in normalized signal at concentration 0.0137174? COc1ccccc1NC(=O)N1C[C@@H]2N[C@H](C1)C2c1ccc(/C=C/c2ccccc2)cc1 (some centres unmarked)
NO

Strictly below 0.9 in normalized signal at concentration 0.0137174? `CC(C)NC(=O)NCC[C@@H]1CC[C@H](NS(=O)(=O)c2ccc(Oc3ccccc3)cc2)[C@@H](CO)O1`
YES

Strictly below 0.9 in normalized signal at concentration 0.0137174? `Cc1noc(C)c1S(=O)(=O)N(C)C[C@@H]1OCCCC[C@@H](C)Oc2ccc(N(C)C)cc2C(=O)N([C@@H](C)CO)C[C@H]1C`
NO

====

- Tested on: Plasmodium berghei (Pb-Luc) exoerythrocytic-stage parasites
- applied.conditions: second series; concentration 0.000508053; fraction of control
endpoint.name: normalized signal at concentration 0.000508053
No unit in the answer, please; the number alone is enough.

>  <smiles.code>
C/C=C/c1ccc([C@H]2[C@@H](CO)N(CC3CCCCC3)[C@H]2CNC(C)C)cc1

>  <measured.value>
0.78

$$$$
>  <smiles.code>
C[C@H](CO)N1C[C@H](C)[C@@H](CN(C)C(=O)Nc2ccc(C(F)(F)F)cc2)Oc2c(NC(=O)c3ccc(-c4nccs4)cc3)cccc2C1=O

>  <measured.value>
1.058

$$$$

Endpoint output: normalized signal at concentration 0.000508053 of `C[C@@H]1CN([C@@H](C)CO)C(=O)c2cccc(NC(=O)C3CC3)c2O[C@@H]1CN(C)C(=O)Nc1ccc(C(F)(F)F)cc1` . Value?
1.064

Endpoint output: normalized signal at concentration 0.000508053 of `C[C@H]1CCCCO[C@H](CN(C)S(=O)(=O)c2ccc(F)cc2)[C@@H](C)CN([C@@H](C)CO)C(=O)c2cc(N(C)C)ccc2O1` . Value?
1.11

Endpoint output: normalized signal at concentration 0.000508053 of `COc1ccc(S(=O)(=O)N(C)C[C@H]2Oc3ccc(NC(=O)Cc4cn(C)c5ccccc45)cc3C(=O)N([C@H](C)CO)C[C@@H]2C)cc1` . Value?
0.993

Endpoint output: normalized signal at concentration 0.000508053 of `COc1cccc(CN2[C@H](CO)[C@@H](c3ccccc3)C23CN(Cc2ccccc2OC)C3)c1` . Value?
0.82

====

Documented cytotoxicity at 50 µM across a set of compounds
- System: HepG2-A16-CD81EGFP cells
- experiment.description: cells
- applied.conditions: Homo sapiens, HepG2, read-out: HepG2 Tox% @ 50 uM rep2
Returns: string containing the number followed by the unit.

Would you please look over these solved cases?
>  <compound>
COCCn1c(C)nc2ccccc2c1=O

>  <cytotoxicity at 50 µM>
-3%

$$$$
>  <compound>
CCOC(=O)c1cnc2ccc(CC)cc2c1O

>  <cytotoxicity at 50 µM>
-3.29%

$$$$
>  <compound>
CC1CC(C)CN(C(=O)c2ccc(Cl)cc2Cl)C1 (centres unmarked)

>  <cytotoxicity at 50 µM>
88%

$$$$
>  <compound>
COc1ccc2nc(C)cc(Nc3ccccc3O)c2c1

>  <cytotoxicity at 50 µM>
88%

$$$$
>  <compound>
C[n+]1c2ccccc2nc2ccc(NCCO)cc21

>  <cytotoxicity at 50 µM>
93%

$$$$

Endpoint output: cytotoxicity at 50 µM of `Cc1cc(NC(=O)c2ccc(-c3ccccc3)cc2)no1` . Value?
-20%

Endpoint output: cytotoxicity at 50 µM of `O=C(NCc1ccco1)C1CCN(S(=O)(=O)c2ccc(Cl)cc2)CC1` . Value?
28%

Endpoint output: cytotoxicity at 50 µM of `CN1CCN(c2ccc(Nc3c4ccccc4nc4ccccc34)cc2)CC1` . Value?
99%

Endpoint output: cytotoxicity at 50 µM of CC(C)(C)CC(C)(C)NCC(O)COc1ccc2c(c1)CCC2 (centres unmarked) . Value?
98%

Endpoint output: cytotoxicity at 50 µM of Cc1cc(NC(=O)C2c3ccccc3C(=O)N(CC(C)C)C2c2cccs2)no1 (centres unmarked) . Value?
18%

====

Documented inhibition at 50 µM across a set of compounds
- Tested on: Plasmodium berghei (Pb-Luc) exoerythrocytic-stage parasites
- experiment.description: microbe, parasite or virus in culture
- applied.conditions: read-out: Inhibition% @ 50 uM rep2
Write the answer as a number in %, unit excluded.

Would you please look over these solved cases?
>  <compound>
Cc1cc(NCCN2CCCCC2)c2ccc3ccccc3c2n1

>  <inhibition at 50 µM (%)>
101

$$$$
>  <compound>
COc1cc(-c2nc(-c3ccc(Sc4ccccc4)cc3)c(-c3ccccc3)[nH]2)cc(OC)c1O

>  <inhibition at 50 µM (%)>
102

$$$$
>  <compound>
COc1ccccc1N1CCN(C(CNS(=O)(=O)c2ccc(Cl)cc2)c2cccnc2)CC1 (stereo not drawn)

>  <inhibition at 50 µM (%)>
96

$$$$
>  <compound>
CCOC(=O)C1=C(c2ccccc2)N=c2sc(=Cc3cc(C)n(-c4ccc(F)cc4)c3C)c(=O)n2C1c1cccc(OC)c1OC (stereo not drawn)

>  <inhibition at 50 µM (%)>
87

$$$$
>  <compound>
COc1ccc(Nc2nc(NCc3ccccc3)c3ccccc3n2)cc1

>  <inhibition at 50 µM (%)>
106

$$$$

Endpoint output: inhibition at 50 µM of `Cc1cc(Nc2ccc(C)c(Cl)c2)n2nc(C(F)(F)F)nc2n1` . Value?
102

Endpoint output: inhibition at 50 µM of `CCN1CCN(Cc2ccc(NC(=O)c3cc4ccc5cccnc5c4[nH]3)cc2)CC1` . Value?
106

====

- Tested on: HepG2-A16-CD81EGFP cells
- applied.conditions: human, 50 uM
Documented HepG2 Tox% @ 50 uM rep1 across a set of molecules
Write the answer as a number in %, unit excluded.

Endpoint output: HepG2 Tox% @ 50 uM rep1 of Cc1cc(N2CCN(C3CCCC3)CC2)n2c(nc3ccccc32)c1C#N [MMV006706] . Value?
-10

Endpoint output: HepG2 Tox% @ 50 uM rep1 of CCOc1ccc(-n2cc(-c3ccccc3)c3c(SCc4cc(C)ccc4C)ncnc32)cc1 [MMV085471] . Value?
-12

Endpoint output: HepG2 Tox% @ 50 uM rep1 of Cn1c(=O)c2cc(C(=O)NCCCN3CCCCCC3)sc2c2ccccc21 [MMV019313] . Value?
100

Endpoint output: HepG2 Tox% @ 50 uM rep1 of CN(C)CCNc1cc(-c2ccccc2)nc2ccccc12 [MMV006704] . Value?
96

====

- System: HepG2-A16-CD81EGFP cells
- experiment.description: cells
- applied.conditions: Homo sapiens, HepG2, read-out: % inhibition
Documented inhibition at 50 µM across a set of molecules

Endpoint output: inhibition at 50 µM of O=C1c2ccccc2C2=Nc3ccccc3SC(c3cccc(F)c3)C12 (centres unmarked) . Value?
96.2%

Endpoint output: inhibition at 50 µM of `CCOc1cccc(C(=O)Nc2ccc(-c3nc4ccccc4[nH]3)cc2)c1` . Value?
76.2%

Endpoint output: inhibition at 50 µM of `COc1ccc(-c2nonc2NC(=O)c2cccc(Cl)c2)cc1OC` . Value?
92%

Endpoint output: inhibition at 50 µM of `O=C(NC1CCN(Cc2ccccc2)CC1)c1cc2nc(-c3ccc(Cl)s3)cc(C(F)(F)F)n2n1` . Value?
-29.6%

Endpoint output: inhibition at 50 µM of CCCCCCOC(=O)C1=C(C)NC(=O)NC1c1ccccc1F (centres unmarked) . Value?
19.1%

====

- System: Plasmodium berghei (Pb-Luc) exoerythrocytic-stage parasites
- applied.conditions: second series; concentration 0.37037; fraction of control
endpoint.name: normalized signal at concentration 0.37037
No unit in the answer, please; the number alone is enough.

>  <compound>
CN(C)c1ccc2c(c1)[C@@H]1C[C@@H](CC(=O)NC3CCCCC3)O[C@@H](CO)[C@@H]1O2 [BRD-K29474997-001-01-2]

>  <measured.value>
0.91

$$$$

Give recorded normalized signal at concentration 0.37037 with Plasmodium berghei (Pb-Luc) exoerythrocytic-stage parasites for the following compound: CC(C)[C@H]1COCn2nncc2CCCC(=O)N1 [BRD-K14350179-001-01-1]
1.01

Give recorded normalized signal at concentration 0.37037 with Plasmodium berghei (Pb-Luc) exoerythrocytic-stage parasites for the following compound: Cc1cccc(-c2ccc(C3[C@@H]4CN(C(=O)CN(C)C)C[C@H]3N4)cc2)c1 (some centres unmarked) [BRD-K25161260-019-01-1]
0.98
